EXPERIMENTAL TARGET: human M2 receptor (Homo sapiens, UniProt P08172)
Sequence (P08172 whole entry): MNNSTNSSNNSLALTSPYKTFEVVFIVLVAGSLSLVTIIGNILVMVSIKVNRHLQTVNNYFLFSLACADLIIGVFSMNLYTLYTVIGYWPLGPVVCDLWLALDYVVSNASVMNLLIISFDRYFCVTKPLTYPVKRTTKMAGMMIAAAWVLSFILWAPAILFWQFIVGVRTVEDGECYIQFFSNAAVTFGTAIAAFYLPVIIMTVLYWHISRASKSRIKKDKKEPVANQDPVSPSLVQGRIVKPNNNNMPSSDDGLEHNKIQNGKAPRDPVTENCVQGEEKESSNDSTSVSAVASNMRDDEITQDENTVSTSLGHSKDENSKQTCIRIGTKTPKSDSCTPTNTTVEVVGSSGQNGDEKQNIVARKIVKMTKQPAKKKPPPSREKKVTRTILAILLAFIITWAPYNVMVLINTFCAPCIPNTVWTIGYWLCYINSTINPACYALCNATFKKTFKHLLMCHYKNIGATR
ASSAY COMMENT: Functional M2-GIRK1/4 activation test: allosteric potency (EC50) and efficiency at EC20 acetylcholine
RUN PARAMETERS: CHO-DUKX-M2-GIRK cells; voltage-sensitive dye; acetylcholine at EC20; in some cases mean of two or more determinations
Source text: The binding of orthosteric agonists (endogenous ligand: acetylcholine) to the M2 receptor leads to receptor activation or a change in conformation of the receptor in the manner of a shift in equilibrium in favour of the active receptor conformation. The agonist-induced change in conformation of the M2 receptor results in a Gαi protein activation. […] Under physiological conditions, the result is then a selective efflux of potassium from the cell along the electrochemical gradient. […]
The entries below are paired with their reported pEC50.
To interpret pEC50, take it as minus log10 of a concentration measured in moles per litre.

| COMPOUND | VALUE |
| --- | --- |
| CC(NC(=O)c1cn(-c2c(F)cc(F)cc2F)c2nc(N3CCNCC(O)C3)c(F)cc2c1=O)C(F)(F)C(F)(F)F (stereo not shown) [Example 200] | 6.92 |
| CCC(NC(=O)c1cn(-c2c(F)cc(F)cc2F)c2nc(N3CC(CO)(CO)C3)c(F)cc2c1=O)C(F)(F)C(F)(F)F (racemic) [Example 172] | 8.48 |
| O=C(NC(C1CC1)C(F)(F)C(F)(F)F)c1cn(-c2c(F)cc(F)cc2F)c2nc(N3CC(CO)(CO)C3)c(F)cc2c1=O (single isomer, unassigned) [Example 205] | 8.51 |

Consider now this further compound.
Prompt: Reported pEC50 for human M2 receptor (Homo sapiens, UniProt P08172), given CC1(O)CN(c2nc3c(cc2F)c(=O)c(C(=O)NC(C2CC2)C2CC2)cn3-c2ncc(F)cc2F)C1 [Example 56] ?
Completion: 7.46
